- TESTED_TARGET: T1, Human MuSK (R&D Systems, cat. 10189-MK, histidine tag) (human, UniProt O15146 24-495)
- T1 construct: Bought protein; also called human monomeric MuSK-6xhis; not shown: histidine tag (6xhis)
- T1 sequence: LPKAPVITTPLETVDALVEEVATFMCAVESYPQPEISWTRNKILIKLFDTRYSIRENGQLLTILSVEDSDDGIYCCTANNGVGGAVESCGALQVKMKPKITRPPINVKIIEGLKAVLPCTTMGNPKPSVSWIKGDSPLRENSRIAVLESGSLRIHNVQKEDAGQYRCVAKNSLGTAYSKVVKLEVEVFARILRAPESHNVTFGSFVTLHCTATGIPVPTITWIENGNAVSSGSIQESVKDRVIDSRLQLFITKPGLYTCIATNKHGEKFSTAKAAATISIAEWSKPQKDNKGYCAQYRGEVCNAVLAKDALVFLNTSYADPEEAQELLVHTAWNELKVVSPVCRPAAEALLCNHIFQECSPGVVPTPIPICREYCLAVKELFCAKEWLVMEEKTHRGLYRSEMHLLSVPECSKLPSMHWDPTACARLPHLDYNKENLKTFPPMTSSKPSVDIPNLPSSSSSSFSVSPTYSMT
- TEST_SUMMARY: SPR (Biacore), MuSK-coated chip presaturated with 500 nM 3D10a (competitor)
RECORDED_ENDPOINT: normalized extra amplitude (%)
Supply the numeric figure in %, leaving out any unit text.

BINDER | RESULT_VALUE
3F6c (antibody, human IgG1, kappa, L234A L235A, V domains shown) VH: EVQLVESGGGLVKPGGSLRLSCAASGFTFSSYTMDWVRQAPGKGLEWVSSIGSNGDYIYYADSVRGRFTISRDNAKNSLYLQMNSLRAEDTAVYYCARGQLAVAGTHFDYWGQGTLVTVSS VL: DIQMTQSPSSLSASVGDRVTITCRASQKVNKYVNWYQQKPGKAPKLLIYAASTLQSGVPSRFSGSGSGTDFTLTISSLQPEDFATYYCQQSYSPLSTFGQGTKLEIKR | -0.6

**Q:** Please report the measured normalized extra amplitude (%) for 3D10a (antibody, human IgG1, kappa, L234A L235A, V domains shown) VH: EVQLVESGGGLVKPGGSLRLSCAASGFTFSASTMAWVRQAPGKGLEWVSSVSGDSHHIYYADSLKGRFTISRDNAKNSLYLQMNSLRAEDTAVYYCARERLLRLGVGFDSWGQGTLVTVSS VL: DIQMTQSPSSLSASVGDRVTITCRASQRISGFVNWYQQKPGKAPKLLIYAASTLQSGVPSRFSGSGSGTDFTLTISSLQPEDFATYYCQQSYSPLYTFGQGTKLEIKR
**A:** 0.2

**Q:** Please report the measured normalized extra amplitude (%) for 3B5 (antibody, V domains shown, also called 3B5wt) VH: QVQLVQSGAVVAKPGASVQVSCKTSGYTFTGQYLHWVRQAPGQGLEWIGWINPSSGVTKFAEKFEGRATMTRDTSITTAYIDLRSLRSDDTATYYCATLSLGVYYVGMVAWGQGTLVTVSS VL: ELTQPPSVSVSPGQTATITCSGDGLAQQHVYWFQQRPGQAPLLIIYKDIERPSGIPERFSGSSSGTTAMLTISGVQAEDEADYYCQSGDRTATSVLFGGGTKMTVLG
**A:** 342
